# experimentalSystem: MAGL (recombinant wild-type) (Homo sapiens, UniProt Q99685)
# testProtocol: 4-NPA assay: MAGL inhibitory activity by hydrolysis of 4-nitrophenylacetate, absorbance at 405 nm
# runParameters: 4-NPA assay (values without footnote [b])
Each entry below carries its reported IC50.
Numbers only here, please. The scale is nM.

{"molSmiles": "CC(C)(C)Cn1cc(-c2ccc(C(=O)N3CCN(c4nc5nc(Cl)ccc5o4)CC3)cc2)cn1", "IC50 [nM]": 2}
{"molSmiles": "CC(C)(CF)c1nnc(-c2ccc(C(=O)N3CCN(c4nc5nc(Cl)ccc5o4)CC3)cc2)o1", "IC50 [nM]": 176}
{"molSmiles": "CCOC1(C)CN(c2ccc(C(=O)N3CCN(c4nc5nc(Cl)ccc5o4)CC3)cc2)C1", "IC50 [nM]": 235}
{"molSmiles": "Cc1cc(C(=O)N2CCN(c3nc4nc(Cl)ccc4o3)CC2)ccc1OCC(C)(C)C", "IC50 [nM]": 5}
{"molSmiles": "CC(C)(C)c1cn(-c2ccc(C(=O)N3CCN(c4nc5nc(Cl)ccc5o4)CC3)cc2)cn1", "IC50 [nM]": 20}
{"molSmiles": "Cc1ccc2oc(N3CCN(C(=O)c4ccc(C5(C)COC5)cc4)CC3)nc2n1", "IC50 [nM]": 367}
{"molSmiles": "CC(=O)Cc1nc(-c2ccc(C(=O)N3CCN(c4nc5nc(Cl)ccc5o4)CC3)cc2)no1", "IC50 [nM]": 1550}
{"molSmiles": "Cc1ccc2oc(N3CCN(C(=O)c4cnc(OCC5(C)CC5)c(C)c4)CC3)nc2n1", "IC50 [nM]": 106}
{"molSmiles": "Cc1ccc2oc(N3CCN(C(=O)c4cc(Cl)cc(-c5ccc(CO)cc5)c4)CC3)nc2n1", "IC50 [nM]": 180}
{"molSmiles": "Cc1ccc2oc(N3CCN(C(=O)c4ccc(-c5noc(C(C)(C)CF)n5)cc4)CC3)nc2n1", "IC50 [nM]": 49}

Query: Supply IC50 value. Item: Cc1ccc2oc(N3CCN(C(=O)c4cc(OCC5(C(F)(F)F)CC5)cc(-c5ccc(CO)cc5)c4)CC3)nc2n1
Result: 302

Query: Supply IC50 value. Item: Cc1ccc2oc(N3CCN(C(=O)c4ccc(-c5noc(C6(CF)CC6)n5)cc4)CC3)nc2n1
Result: 257

---

# experimentalSystem: MAGL (Homo sapiens, UniProt Q99685)
# Sequence (Q99685 1-303): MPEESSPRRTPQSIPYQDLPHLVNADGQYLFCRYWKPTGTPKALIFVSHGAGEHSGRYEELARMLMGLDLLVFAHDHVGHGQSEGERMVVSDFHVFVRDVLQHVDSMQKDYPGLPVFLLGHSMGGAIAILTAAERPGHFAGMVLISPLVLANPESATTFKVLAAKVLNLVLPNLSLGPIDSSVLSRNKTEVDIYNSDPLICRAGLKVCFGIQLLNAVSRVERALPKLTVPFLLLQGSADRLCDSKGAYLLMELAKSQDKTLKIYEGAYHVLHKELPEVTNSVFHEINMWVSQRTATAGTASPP
Flag rule - IC50 less than 50 nM flags 1; the remaining entries get -1.

The examples below pair each entry with its known result.
{"compound": "CC(C)(C)Cn1cc(-c2ccc(C(=O)N3CCN(c4nc5nc(Cl)ccc5o4)C(CO)C3)cc2)nn1 (stereo not drawn)", "experimentalSystem": "MAGL (Homo sapiens, UniProt Q99685)", "label": -1}
{"compound": "CC(C)(C)Cn1cc(-c2ncc(C(=O)N3CCN(c4nc5nc(Cl)ccc5o4)CC3)cc2F)nn1", "experimentalSystem": "MAGL (Homo sapiens, UniProt Q99685)", "label": 1}
{"compound": "O=C(c1ccc(-c2cn(C34CC(C3)C4)nn2)cc1)N1CCN(c2nc3nc(Cl)ccc3o2)CC1", "experimentalSystem": "MAGL (Homo sapiens, UniProt Q99685)", "label": 1}
{"compound": "Cc1cc(C(=O)N2CCN(c3nc4nc(Cl)ccc4o3)CC2)cnc1OCC1(C#N)CC1", "experimentalSystem": "MAGL (Homo sapiens, UniProt Q99685)", "label": -1}
{"compound": "Cc1cc(C(=O)N2CCN(c3nc4nc(Cl)ccc4o3)CC2)cnc1-c1cnn(C(C)(C)C)c1", "experimentalSystem": "MAGL (Homo sapiens, UniProt Q99685)", "label": 1}

Query: # TODO verify IC50 < 50 nM strictly for this compound: Cc1ccc2oc(N3CCN(C(=O)c4ccc(-c5cn(CC6COC6)nn5)cc4)CC3)nc2n1
Result: -1

Query: # TODO verify IC50 < 50 nM strictly for this compound: Cc1cc(C(=O)N2CCN(c3nc4nc(Cl)ccc4o3)CC2)cnc1-c1cn(CC(C)(C)C)nn1
Result: -1

Query: # TODO verify IC50 < 50 nM strictly for this compound: CC(C)(C)Cn1nncc1-c1ncc(C(=O)N2CCN(c3nc4nc(Cl)ccc4o3)CC2)cc1F
Result: -1

Query: # TODO verify IC50 < 50 nM strictly for this compound: Cc1ccc2oc(N3CCN(C(=O)c4cnc(-n5cc(C(C)(C)C)cn5)c(C)c4)CC3)nc2n1
Result: 1
